- stated-conditions: in n-propyl acetate, 313.15 K
outcome-measure: solubility (mole fraction)
Give the figure only, with no unit attached.

Give the reported solubility (mole fraction) for this compound. O=C1CCCC(=O)O1
0.908

----------
- stated-conditions: in acetone, 298.15 K
outcome-measure: solubility (mole fraction)
A bare number is all that is needed in reply.

Look up solubility (mole fraction) of O=C1CCCC(=O)O1 and report it.
0.76

----------
- stated-conditions: in dichloromethane, 283.15 K
outcome-measure: solubility (mole fraction)

Given the compound O=C1CCCC(=O)O1 , write its reported solubility (mole fraction).
0.51

----------
- stated-conditions: in n-propyl acetate, 288.15 K
outcome-measure: solubility (mole fraction)
Number only, please.

Supply solubility (mole fraction) value. Item: O=C1CCCC(=O)O1
0.407

----------
- stated-conditions: in 1,2-dichloroethane, 293.15 K
outcome-measure: solubility (mole fraction)
Give the figure by itself; no unit, no explanation.

Read off the recorded solubility (mole fraction) for O=C1CCCC(=O)O1
0.7

----------
- stated-conditions: in acetone, 293.15 K
outcome-measure: solubility (mole fraction)
Lab note: record the figure alone, no unit after it.

Write down solubility (mole fraction) measured for item O=C1CCCC(=O)O1
0.676

----------
- stated-conditions: in acetonitrile, 293.15 K
outcome-measure: solubility (mole fraction)
In your answer, state the number alone without any accompanying words.

Answer with the recorded solubility (mole fraction) for the compound listed here: O=C1CCCC(=O)O1
0.764

----------
- stated-conditions: in DMAc, 278.15 K
outcome-measure: solubility (mole fraction)
Answer with a bare number; do not write a unit.

Report measured solubility (mole fraction); entry is O=C1CCCC(=O)O1
0.73

----------
- stated-conditions: in n-butyl acetate, 293.15 K
outcome-measure: solubility (mole fraction)
Kindly provide the number alone.

Answer with the recorded solubility (mole fraction) of O=C1CCCC(=O)O1 only.
0.246

----------
- stated-conditions: in acetone, 283.15 K
outcome-measure: solubility (mole fraction)

Please indicate solubility (mole fraction) recorded for O=C1CCCC(=O)O1
0.524

----------
- stated-conditions: in DMAc, 313.15 K
outcome-measure: solubility (mole fraction)
When you answer, write just the number.

Annotate the compound O=C1CCCC(=O)O1 with its measured solubility (mole fraction).
0.935

----------
- stated-conditions: in acetone, 288.15 K
outcome-measure: solubility (mole fraction)

Quote solubility (mole fraction) reported for O=C1CCCC(=O)O1 please.
0.623

----------
- stated-conditions: in dichloromethane, 293.15 K
outcome-measure: solubility (mole fraction)
// print number alone

Identify the reported solubility (mole fraction) for the following entry. O=C1CCCC(=O)O1
0.641
